# system: Orx2 (Homo sapiens, UniProt O43614)
# Construct: DiscoverX
# Sequence (O43614 whole entry): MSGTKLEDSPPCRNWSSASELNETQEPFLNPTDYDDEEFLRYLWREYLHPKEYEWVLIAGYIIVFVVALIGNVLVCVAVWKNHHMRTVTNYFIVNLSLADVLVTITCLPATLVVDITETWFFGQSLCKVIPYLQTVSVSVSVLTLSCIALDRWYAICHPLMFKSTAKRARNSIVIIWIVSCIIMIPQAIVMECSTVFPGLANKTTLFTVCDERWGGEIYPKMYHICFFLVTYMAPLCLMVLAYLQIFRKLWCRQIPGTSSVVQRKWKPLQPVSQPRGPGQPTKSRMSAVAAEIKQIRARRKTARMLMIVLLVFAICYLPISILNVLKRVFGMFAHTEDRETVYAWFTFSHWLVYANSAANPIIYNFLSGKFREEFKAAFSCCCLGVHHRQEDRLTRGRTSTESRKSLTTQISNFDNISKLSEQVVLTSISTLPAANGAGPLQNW
# experiment: Orx2 antagonist screening, chemiluminescent cell assay with Orexin B EC80
# Type: cell-based
# measurement conditions: absolute percent agonism at the μM concentration of the relative OR2 IC50
% Agonism Orx2 at Relative IC50 listing for selected molecules.
recorded endpoint: % Agonism Orx2 at Relative IC50 (%)

# molecule, system, readout unit, measured number
rows = [
    ("C[C@@H]1O[C@@H](O[C@H]2[C@H](Oc3c(-c4ccc(O)cc4)oc4cc(O)cc(O)c4c3=O)O[C@H](CO)[C@@H](O)[C@@H]2O)[C@H](O)[C@H](O)[C@H]1O", "Orx2 (Homo sapiens, UniProt O43614)", "%", 50),
    ("CC1O[C@@H](OC2C(O)[C@H](Oc3c(-c4ccc(O)cc4)oc4cc(O)cc(O)c4c3=O)OC(CO)[C@H]2O)[C@@H](O)C(O)[C@H]1O (stereo partly drawn)", "Orx2 (Homo sapiens, UniProt O43614)", "%", 45),
    ("O=C(CCc1ccc(O)cc1)c1ccc(OC2OC(CO)C(O)C(O)C2O)cc1O (stereo not drawn)", "Orx2 (Homo sapiens, UniProt O43614)", "%", 80),
]
